Source of measurements: patent US8895526B2

Test system: immortalized murine embryonic fibroblasts (Mef)
Experimental Details: Pooled negative selection RNAi screening (deep sequencing)
Format: cell-based
Test Parameters: deep sequencing reads, on dox compared to initial representation
Property: Fold depletion in Mef (Fold)
Answers are plain numbers, in Fold.

Answered examples (3):
QUERY: May I ask what Fold depletion in Mef has been recorded for Ptgs2.3711: neutral control shRNA, SEQ ID NO: 212 (nucleic acid) TGCTGTTGACAGTGAGCGCAACGTTCATGGATAAATTCTATAGTGAAGCCACAGATGTATAGAATTTATCCATGAACGTTATGCCTACTGCCTCGGA ?
RESULT: 1.46

QUERY: Try this molecule too: Slc11a1.307: shRNA, SEQ ID NO: 178 (nucleic acid) TGCTGTTGACAGTGAGCGCAACATTGAGTCCGACCTTCAATAGTGAAGCCACAGATGTATTGAAGGTCGGACTCAATGTTTTGCCTACTGCCTCGGA
RESULT: 0.41

QUERY: Try this molecule too: Kit.1241: neutral control shRNA, SEQ ID NO: 194 (nucleic acid) TGCTGTTGACAGTGAGCGATTCCGTGACATTCAACGTTTATAGTGAAGCCACAGATGTATAAACGTTGAATGTCACGGAAGTGCCTACTGCCTCGGA
RESULT: 0.99

Go through the items and report each one's Fold depletion in Mef.
1. Trpm4.2813: shRNA, SEQ ID NO: 188 (nucleic acid) TGCTGTTGACAGTGAGCGACAAGATTGTCATAGTGAGCAATAGTGAAGCCACAGATGTATTGCTCACTATGACAATCTTGGTGCCTACTGCCTCGGA
2. Mcl1.2018: shRNA, SEQ ID NO: 140 (also SEQ ID NO: 45) (nucleic acid) TGCTGTTGACAGTGAGCGCGGACTGGTTATAGATTTATAATAGTGAAGCCACAGATGTATTATAAATCTATAACCAGTCCATGCCTACTGCCTCGGA

RESULT:
1: 2.33; 2: 3.02

Go through the items and report each one's Fold depletion in Mef.
1. Lima1.3235: shRNA, SEQ ID NO: 138 (nucleic acid) TGCTGTTGACAGTGAGCGAACGGACATTGTACCCAGATAATAGTGAAGCCACAGATGTATTATCTGGGTACAATGTCCGTCTGCCTACTGCCTCGGA
2. Map2k1.2337: neutral control shRNA, SEQ ID NO: 204 (nucleic acid) TGCTGTTGACAGTGAGCGCCAAGATGTTTATCAAATCTAATAGTGAAGCCACAGATGTATTAGATTTGATAAACATCTTGATGCCTACTGCCTCGGA

RESULT:
0.56
0.68

Go through the items and report each one's Fold depletion in Mef.
1. Mn1.5864: neutral control shRNA, SEQ ID NO: 208 (nucleic acid) TGCTGTTGACAGTGAGCGCATCGCTATTGCACATGTATAATAGTGAAGCCACAGATGTATTATACATGTGCAATAGCGATTTGCCTACTGCCTCGGA
2. Ctbs.796: shRNA, SEQ ID NO: 110 (nucleic acid) TGCTGTTGACAGTGAGCGCCCCACAGAGCATCTCACTAAATAGTGAAGCCACAGATGTATTTAGTGAGATGCTCTGTGGGTTGCCTACTGCCTCGGA

RESULT:
1.09
0.19
